For each of the compounds below, state its AUC(0-t).
# procedure_summary: Pharmacokinetic evaluation of compounds in mice
# Assay type: in vivo
# conditions: mouse, plasma, po; female C57BL/6 mice, gavage 10 mg/kg, 0 to 24 h; read-out: Oral AUC0-last
Only the number, expressed in µM·h, is required.

Quick one: AUC(0-t) of COc1nc(C)ccc1-c1cc(Nc2cnc3c(F)cn(C4CCN(C)CC4)c3n2)n[nH]1 [Compound 19] ? 3.91

Could you do the same for COc1nc(C)ccc1-c1cc(Nc2cnc3ccn(C4CCN(C)CC4)c3n2)n[nH]1 [Compound 18] , please? 3.63

Could you do the same for [2H]C([2H])([2H])Oc1nc(C)ccc1-c1cc(Nc2cnc3c(F)cn(C4CCN(C)CC4)c3n2)n[nH]1 [Compound 20] , please? 5.13

----------
# procedure_summary: Pharmacokinetic evaluation of compounds in mice
# Assay type: in vivo
# conditions: mouse, plasma, po; female C57BL/6 mice; route not given (gavage group 10 mg/kg)
For each of the molecules below, state its Cmax.
Only the number, expressed in nM, is required.

Quick one: Cmax of COc1nc(C)ccc1-c1cc(Nc2cnc3c(F)cn(C4CCN(C)CC4)c3n2)n[nH]1 ? 1220

Could you do the same for COc1nc(C)ccc1-c1cc(Nc2cnc3ccn(C4CCN(C)CC4)c3n2)n[nH]1 , please? 1220

Could you do the same for [2H]C([2H])([2H])Oc1nc(C)ccc1-c1cc(Nc2cnc3c(F)cn(C4CCN(C)CC4)c3n2)n[nH]1 , please? 1260

----------
The next entries give measured pIC50 for Chk1 (Homo sapiens (Human), UniProt O14757).
When answering, recall that pIC50 equals minus log10 of the concentration in mol/L, and write that number alone.

Hi! What's the reported pIC50 for COc1ccccc1-c1cc(Nc2cnc3ccn(C4CCNCC4)c3n2)n[nH]1 [Compound 10] on Chk1 (Homo sapiens (Human), UniProt O14757)? 8.70

Could you do the same for COc1nc(C)ccc1-c1cc(Nc2cnc3ccn(C[C@H]4CCNC4)c3n2)n[nH]1 [Compound 5] , please? 8.52

Could you do the same for COc1nc(C(F)(F)F)ccc1-c1cc(Nc2cnc3ccn(C4CCNCC4)c3n2)n[nH]1 [Compound 9] , please? 8.70

Could you do the same for COc1ccc(F)cc1-c1cc(Nc2cnc3ccn(C4CCNCC4)c3n2)n[nH]1 [Compound 8] , please? 9.00

Could you do the same for COc1nc(C)ccc1-c1cc(Nc2cnc3c(F)cn(C4CCNCC4)c3n2)n[nH]1 [Compound 2] , please? 8.70

Could you do the same for COc1cc(Cl)ccc1-c1cc(Nc2cnc3ccn(C4CCNCC4)c3n2)n[nH]1 [Compound 14] , please? 9.00

Could you do the same for COc1cc(F)ccc1-c1cc(Nc2cnc3ccn(C4CCNCC4)c3n2)n[nH]1 [Compound 12] , please? 9.00

Could you do the same for COc1nc(C)ccc1-c1cc(Nc2cnc3ccn(CC4CNC4)c3n2)n[nH]1 [Compound 4] , please? 8.52

----------
# procedure_summary: Pharmacokinetic evaluation of compounds in mice
# Type: in vivo
# conditions: mouse, plasma, oral; female C57BL/6 mice, gavage 10 mg/kg vs intravenous 1 mg/kg; read-out: F (bioavailability)
measured_attribute: bioavailability
Quick note: unit goes after the number.

Quick one: bioavailability of COc1nc(C)ccc1-c1cc(Nc2cnc3ccn(C4CCN(C)CC4)c3n2)n[nH]1 ? 33.2%

Could you do the same for [2H]C([2H])([2H])Oc1nc(C)ccc1-c1cc(Nc2cnc3c(F)cn(C4CCN(C)CC4)c3n2)n[nH]1 , please? 41.9%

Could you do the same for COc1nc(C)ccc1-c1cc(Nc2cnc3c(F)cn(C4CCN(C)CC4)c3n2)n[nH]1 , please? 39.1%

----------
# procedure_summary: Pharmacokinetic evaluation of compounds in mice
# Type: in vivo
# conditions: mouse, plasma; female C57BL/6 mice, intravenous injection 1 mg/kg, 0 to 24 h; read-out: Intravenous Injection AUC0-last
For each of the compounds below, state its AUC(0-t).
Only the number, expressed in µM·h, is required.

Quick one: AUC(0-t) of [2H]C([2H])([2H])Oc1nc(C)ccc1-c1cc(Nc2cnc3c(F)cn(C4CCN(C)CC4)c3n2)n[nH]1 ? 1.21

Could you do the same for COc1nc(C)ccc1-c1cc(Nc2cnc3ccn(C4CCN(C)CC4)c3n2)n[nH]1 , please? 1.14

Could you do the same for COc1nc(C)ccc1-c1cc(Nc2cnc3c(F)cn(C4CCN(C)CC4)c3n2)n[nH]1 , please? 1.15

----------
# procedure_summary: Pharmacokinetic evaluation of compounds in mice
# Assay type: in vivo
# conditions: mouse, plasma; female C57BL/6 mice, intravenous injection 1 mg/kg
measured_attribute: Vd (L/kg)
Only the number, expressed in L/kg, is required.

Quick one: Vd of [2H]C([2H])([2H])Oc1nc(C)ccc1-c1cc(Nc2cnc3c(F)cn(C4CCN(C)CC4)c3n2)n[nH]1 ? 2.7

Could you do the same for COc1nc(C)ccc1-c1cc(Nc2cnc3c(F)cn(C4CCN(C)CC4)c3n2)n[nH]1 , please? 2.4

Could you do the same for COc1nc(C)ccc1-c1cc(Nc2cnc3ccn(C4CCN(C)CC4)c3n2)n[nH]1 , please? 1.9

----------
# study_target: Chk2 (Homo sapiens (Human), UniProt O96017)
# Sequence (O96017 whole entry): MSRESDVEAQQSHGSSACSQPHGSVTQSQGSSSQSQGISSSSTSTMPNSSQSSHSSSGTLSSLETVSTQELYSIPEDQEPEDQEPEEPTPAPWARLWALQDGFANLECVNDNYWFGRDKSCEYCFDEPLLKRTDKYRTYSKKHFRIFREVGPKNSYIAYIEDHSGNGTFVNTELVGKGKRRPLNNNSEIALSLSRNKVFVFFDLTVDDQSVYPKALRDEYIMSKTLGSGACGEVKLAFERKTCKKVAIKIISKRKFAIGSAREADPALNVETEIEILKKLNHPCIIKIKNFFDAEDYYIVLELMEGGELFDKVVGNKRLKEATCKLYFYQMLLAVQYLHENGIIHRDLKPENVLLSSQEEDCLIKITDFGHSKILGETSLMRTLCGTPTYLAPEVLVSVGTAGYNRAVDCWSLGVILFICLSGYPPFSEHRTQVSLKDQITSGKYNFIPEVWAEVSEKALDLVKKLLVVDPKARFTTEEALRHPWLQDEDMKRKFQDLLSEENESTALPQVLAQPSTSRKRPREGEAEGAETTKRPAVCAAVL
# procedure_summary: Chk2 kinase activity test, Eurofins KinaseProfiler, [γ-33P]-ATP peptide substrate phosphorylation
# Type: biochemical
# conditions: read-out: Chk2 inhibition IC50
For each of the compounds below, state its pIC50.
When answering, recall that pIC50 equals minus log10 of the concentration in mol/L, and write that number alone.

Quick one: pIC50 of COc1cc(C)ccc1-c1cc(Nc2cnc3ccn(C4CCNCC4)c3n2)n[nH]1 ? 7.08

Could you do the same for Fc1cccc(OC(F)(F)F)c1-c1cc(Nc2cnc3ccn(C4CCNCC4)c3n2)n[nH]1 , please? 7.00

Could you do the same for COc1nc(C(F)(F)F)ccc1-c1cc(Nc2cnc3ccn(C4CCNCC4)c3n2)n[nH]1 , please? 6.00

Could you do the same for COc1cc(F)ccc1-c1cc(Nc2cnc3ccn(C4CCNCC4)c3n2)n[nH]1 , please? 7.49

Could you do the same for COc1nc(C)ccc1-c1cc(Nc2cnc3ccn(C[C@H]4CCNC4)c3n2)n[nH]1 , please? 6.43

Could you do the same for COc1cc(Cl)ccc1-c1cc(Nc2cnc3ccn(C4CCNCC4)c3n2)n[nH]1 , please? 7.14

Could you do the same for COc1ccccc1-c1cc(Nc2cnc3ccn(C4CCNCC4)c3n2)n[nH]1 , please? 7.21

Could you do the same for COc1nc(C)ccc1-c1cc(Nc2cnc3ccn(CC4CNC4)c3n2)n[nH]1 , please? 6.48

Could you do the same for COc1ccc(F)cc1-c1cc(Nc2cnc3ccn(C4CCNCC4)c3n2)n[nH]1 , please? 6.73

----------
The next entries give measured IC50 for Chk1 (Homo sapiens (Human)).

Quick one: IC50 of [2H]C([2H])([2H])Oc1nc(C)ccc1-c1cc(Nc2cnc3ccn(C4CCN(C([2H])([2H])[2H])CC4)c3n2)n[nH]1 ? 1 nM

Could you do the same for [2H]C([2H])([2H])Oc1nc(C)ccc1-c1cc(Nc2cnc3c(F)cn(C4CCN(C)CC4)c3n2)n[nH]1 , please? 2 nM

Could you do the same for [2H]c1cn(C2CCNCC2)c2nc(Nc3cc(-c4ccc(C)nc4OC)[nH]n3)cnc12 , please? < 1 nM

Could you do the same for Fc1cccc(OC(F)(F)F)c1-c1cc(Nc2cnc3ccn(C4CCNCC4)c3n2)n[nH]1 , please? 3 nM

Could you do the same for [2H]C([2H])([2H])N1CCC(n2ccc3ncc(Nc4cc(-c5ccc(C)nc5OC)[nH]n4)nc32)CC1 , please? 1 nM

Could you do the same for COc1cc(C)ccc1-c1cc(Nc2cnc3ccn(C4CCNCC4)c3n2)n[nH]1 , please? 2 nM

----------
# study_target: Chk2 (Homo sapiens (Human), UniProt O96017)
# procedure_summary: Chk2 kinase activity test, Eurofins KinaseProfiler, [γ-33P]-ATP peptide substrate phosphorylation
# Format: biochemical
measured_attribute: IC50 (nM)
Only the number, expressed in nM, is required.

Hi! What's the reported IC50 for [2H]c1cn(C2CCNCC2)c2nc(Nc3cc(-c4ccc(C)nc4OC)[nH]n3)cnc12 on Chk2 (Homo sapiens (Human), UniProt O96017)? 64

Could you do the same for [2H]C([2H])([2H])Oc1nc(C)ccc1-c1cc(Nc2cnc3c(F)cn(C4CCN(C)CC4)c3n2)n[nH]1 , please? 282

Could you do the same for [2H]C([2H])([2H])N1CCC(n2ccc3ncc(Nc4cc(-c5ccc(C)nc5OC)[nH]n4)nc32)CC1 , please? 362

Could you do the same for [2H]C([2H])([2H])Oc1nc(C)ccc1-c1cc(Nc2cnc3ccn(C4CCN(C([2H])([2H])[2H])CC4)c3n2)n[nH]1 , please? 386
